Tested on: cells
Run Description: Relative cell-binding activity of synthetic peptides (relative to the SEQ ID NO:1 peptide / P-15, or to collagen)
Format: cell-based
Measurement Conditions: relative to the inventive peptide illustrated in Examples 1 and 2 (SEQ ID NO:1)
No end group written: not given here.
As shown below, each of these substances has a reported Relative Cell-Binding Activity value.
Endpoint Name: Relative Cell-Binding Activity

[[record]]
substance = "GPQGIAGQR [SEQ ID NO:2]"
measured_result = 100

[[record]]
substance = "QGIAGQ [SEQ ID NO:3]"
measured_result = 120

[[record]]
substance = "QGIAGQR [SEQ ID NO:4]"
measured_result = 60

[[record]]
substance = "QGAIAQ [SEQ ID NO:7]"
measured_result = 70

[[record]]
substance = "Gly—Ile—Ala—Gly—Gln (GIAGQ; OTHER INFORMATION: synthetic peptide) [SEQ ID NO:6]"
measured_result = 70

[[record]]
substance = "FGIAGF [SEQ ID NO:5]"
measured_result = 87


Values from patent US6818620B2
